Data origin, for the record: ChEMBL document CHEMBL1201862

Reported GI50 values for the following molecules.
# System: SN12C
# method.description: NCI tumour cell line growth inhibition, 48 h
The source made the active and inactive calls. Rule as the data show it: active = GI50 up to about 1.1 µM and inactive = higher.

Recorded results for 2 molecules are shown here.
molecule	GI50
CC1CC(C#N)=C2NCCN2C1=O (stereo not given)	> 100 µM (inactive)
Oc1nc2cc3nc(O)c(O)nc3cc2nc1O	> 100 µM (inactive)

Using known records, supply GI50 for CCNC1=C(NC(=O)c2ccccc2)C(=O)c2ccccc2C1=O 42.8 µM (inactive)

Using known records, supply GI50 for Cc1ccc(CC(C)N)cc1 (stereo not given) > 100 µM (inactive)

====

# Test system: SK-OV-3
# method.description: NCI tumour cell line growth inhibition, 48 h
Calls of active or inactive are those of the source. Cut-off read from the data, not from the text of the source: active = GI50 up to about 1.1 µM and inactive = higher.
Hi there, use one of these labels in your reply, thanks! Y = active, N = inactive

Example entries and their recorded answers appear below.
compound	target.system	assigned.class
Cc1ccc(/N=C/C=C(\Nc2ccc(C)cc2)c2ccc3ccccc3c2)cc1	SK-OV-3	Y
CC(C)(C)OC(=O)NC(Cc1ccc(OCc2ccccc2)cn1)C(=O)N1CCCCC1 (centres undefined)	SK-OV-3	N
CCOC(=O)CC(=O)NC1CC2CCC1(C)C2(C)C (centres undefined)	SK-OV-3	N
O=C1c2ccccc2C(=O)N1[C@@H](Cc1ccccc1)C(=O)n1cccc1CO	SK-OV-3	N

Assay outcome for O=C(NC(Cc1ccccc1)(Cc1ccc(O)cn1)C(=O)O)c1ccccc1 (centres undefined) : what was it? N

Assay outcome for Nc1[nH]nc2ccccc12 : what was it? N

Assay outcome for N=c1oc2c(Cl)cc(Cl)cc2cc1C(=O)Nc1ccccn1 : what was it? N

Assay outcome for N#CCCN(CCC#N)c1ccc(/C=C2\N=C(c3cc([N+](=O)[O-])ccc3Cl)OC2=O)cc1 : what was it? N

Assay outcome for CNc1nc(SC)nc2c1c(N)nn2C : what was it? N

Assay outcome for COC(=O)c1c(O)ccc2c1c1c(n2-c2ccc(OC)cc2)C(=O)c2ccccc2C1=O : what was it? N

Assay outcome for Nc1ccc2c(c1)C(=O)N(OS(=O)(=O)c1ccccc1)C2=O : what was it? N

Assay outcome for COC(=O)C1CC(C(=O)OC)c2nc3cc(C)c(C)cc3nc21 (centres undefined) : what was it? N
